Target: human A2A receptor (A2AR) (Homo sapiens)
Sequence (P29274 whole entry): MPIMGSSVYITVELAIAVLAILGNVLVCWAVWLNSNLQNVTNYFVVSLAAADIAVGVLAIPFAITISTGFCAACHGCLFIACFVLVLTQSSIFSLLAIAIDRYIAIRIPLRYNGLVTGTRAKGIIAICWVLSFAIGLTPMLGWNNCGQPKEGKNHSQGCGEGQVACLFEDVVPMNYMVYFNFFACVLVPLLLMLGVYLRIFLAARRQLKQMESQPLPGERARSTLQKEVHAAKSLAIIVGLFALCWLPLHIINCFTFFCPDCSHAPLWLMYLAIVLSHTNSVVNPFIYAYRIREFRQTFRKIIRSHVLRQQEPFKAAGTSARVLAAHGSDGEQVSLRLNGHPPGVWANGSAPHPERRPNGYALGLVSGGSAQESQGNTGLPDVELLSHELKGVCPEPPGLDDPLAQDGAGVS
Assay: Luciferase reporter assay (HEK293-A2AR-luc2p/CRE/Hygro cells, 3 nM CGS21680)
Details: 3 nM CGS21680, 5 h incubation
pIC50: −log10 of the molar value.
readoutLabel: pIC50

# pIC50 (compound: COCCOc1ccc(N2CCN(C(=O)C(c3ccccc3)n3ncc4c3nc(N)n3nc(-c5ccco5)nc43)CC2)c(F)c1 (single isomer, unassigned) [Compound A44b] ) is 9.30

[I] COCCOc1ccc(N2CCN(C(=O)C(C)(c3ccccc3)n3ncc4c3nc(N)n3nc(-c5ccco5)nc43)[C@@H](C)C2)cc1 (stereo partly shown) [Compound A72]
[II] CC(C(=O)N1CCN(c2ccc(OCCCN3CCCCC3)cc2)CC1)(c1ccccc1)n1ncc2c1nc(N)n1nc(-c3ccco3)nc21 (stereo not shown) [Compound A85]
query: # min-compare on pIC50 between I and II Response format: the label of the selected entry.
result: I

[P] Nc1nc2c(cnn2C(C(=O)N2CCc3c(F)cccc3C2)c2ccccc2)c2nc(-c3ccco3)nn12 (stereo not shown) [Compound B12]
[Q] COCCOCCOc1ccc(N2CCN(C(=O)C(C)n3cc4c(nc(N)n5nc(-c6ccco6)nc45)n3)CC2)cc1 (stereo not shown) [Compound C9]
[R] CN(C)C(=O)c1cccc(N2CCN(C(=O)C(C)(c3ccccc3)n3ncc4c3nc(N)n3nc(-c5ccco5)nc43)CC2)c1 (stereo not shown) [Compound A88]
[S] Cc1ccc2c(c1)CN(C(=O)C(c1ccccc1)n1ncc3c1nc(N)n1nc(-c4ccco4)nc31)CC2 (stereo not shown) [Compound B17]
query: Please give the order of these compounds when sorted by pIC50, largest value leading. Record the ranking as a list of labels in the requested order.
result: S, P, R, Q
(S: 8.89, P: 8.60, R: 8.15, Q: 7.40)

* * *

Biological target: human A2A receptor (A2AR) (Homo sapiens)
Assay: Luciferase reporter assay (HEK293-A2AR-luc2p/CRE/Hygro cells, 3 nM CGS21680)
Settings: 3 nM CGS21680, 5 h incubation
Procedure: HEK293 cells were maintained in Dulbecco's modified Eagle's medium (DMEM, Gibco) supplemented with 10% fetal bovine serum (FBS, Thermo Scientific), 100 units/mL penicillin (Gibco), and 0.1 mg/mL streptomycin (Gibco) in a humidified 37° C. environment with 5% C02. Plasmid encoding wild-type human A2A receptor (A2AR) (in pcDNA3.1) was synthesized by Genscript (Nanjing, China). […] Expression level of A2AR in each single cell clone was determined using immunoblotting and FACS method. […]
readoutLabel: IC50 (nM)

# IC50 (compound: CC(C(=O)N1CCNCC1)(c1ccccc1)n1ncc2c1nc(N)n1nc(-c3ccco3)nc21 (stereo not shown) ) is 96.7

# IC50 (compound: COCCOc1ccc(N2CCN(C(=O)C(CC(C)C)n3ncc4c3nc(N)n3nc(-c5ccco5)nc43)CC2)cc1 (single isomer, unassigned) [Compound A16b] ) is 96.4

# IC50 (compound: COCCOCCOc1ccc(N2CCN(C(=O)C(C(C)C)n3ncc4c3nc(N)n3nc(-c5ccco5)nc43)CC2)cc1 (stereo not shown) ) is 113

# IC50 (compound: COCCOc1ccc(N2CCN(C(=O)C(CC(C)C)n3ncc4c3nc(N)n3nc(-c5ccco5)nc43)CC2)c(F)c1 (stereo not shown) ) is 1.4

[P] COCCOc1ccc(N2CCN(C(=O)C(Cc3ccccc3)n3cc4c(nc(N)n5nc(-c6ccco6)nc45)n3)CC2)cc1 (stereo not shown)
[Q] CO[C@H]1CCN(C(=O)C(C)(c2ccccc2)n2ncc3c2nc(N)n2nc(-c4ccco4)nc32)C1 (stereo partly shown)
[R] COCCOc1ccc2c(c1)CCN(C(=O)C(c1ccccc1)n1ncc3c1nc(N)n1nc(-c4ccco4)nc31)C2 (stereo not shown)
query: Order the records, beginning with the lowest IC50 and ending with the highest. Record the ranking as a list of labels in the requested order.
result: R, Q, P
(R: 2.2 nM, Q: 76.5 nM, P: 2070 nM)
